# Read-out: Cytochrome P450 3A4 (Homo sapiens) (UniProt P08684)
# Sequence (P08684 whole entry, looked up): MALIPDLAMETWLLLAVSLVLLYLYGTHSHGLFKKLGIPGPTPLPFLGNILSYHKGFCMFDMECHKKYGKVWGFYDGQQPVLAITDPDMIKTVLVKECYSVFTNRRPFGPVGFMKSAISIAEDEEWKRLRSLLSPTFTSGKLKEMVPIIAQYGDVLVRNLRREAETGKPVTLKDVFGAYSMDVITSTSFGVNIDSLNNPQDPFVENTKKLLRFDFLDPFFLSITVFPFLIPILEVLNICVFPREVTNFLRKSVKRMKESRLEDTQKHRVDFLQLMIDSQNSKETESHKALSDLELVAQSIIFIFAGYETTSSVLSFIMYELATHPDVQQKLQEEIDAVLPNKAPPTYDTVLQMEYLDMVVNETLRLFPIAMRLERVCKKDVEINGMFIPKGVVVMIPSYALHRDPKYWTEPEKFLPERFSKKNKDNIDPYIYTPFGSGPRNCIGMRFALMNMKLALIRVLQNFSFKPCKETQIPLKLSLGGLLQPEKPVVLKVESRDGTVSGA
# Protocol: CLD_CYP3A4_6hr: CellzDirect (CLD) Gene Expression Assay for xenobiotic metabolism (CYP3A4) at 6 hours (AID 2283680)
Records with an inconclusive call do not appear. Active and inactive are the calls of the source. How the source made its calls: active means hit-call score of the fitted dose curve at least 0.9, where 1 is the maximum; inconclusive means response in the unintended direction; inactive means score below 0.9.
Outcomes: active, inactive

{"Compound": "COc1cc(Cl)c(OC)cc1Cl", "Assigned category": "inactive"}
{"Compound": "CCOC(=O)C(C)OC(=O)c1cc(Oc2ccc(C(F)(F)F)cc2Cl)ccc1[N+](=O)[O-] (centres undefined)", "Assigned category": "active"}
{"Compound": "CC(C)Nc1nc(Cl)nc(NC(C)C)n1", "Assigned category": "active"}
{"Compound": "Cc1cc(C)nc(Nc2ccccc2)n1", "Assigned category": "inactive"}
{"Compound": "CC1(C)CCC(=Cc2ccc(Cl)cc2)C1(O)Cn1cncn1 (centres undefined)", "Assigned category": "inactive"}
{"Compound": "Clc1nc(Cl)nc(Nc2ccccc2Cl)n1", "Assigned category": "inactive"}
{"Compound": "CSC(=O)c1c(C(F)F)nc(C(F)(F)F)c(C(=O)SC)c1CC(C)C", "Assigned category": "inactive"}
{"Compound": "OC(c1ccc(Cl)cc1)(c1ccc(Cl)cc1)C(Cl)(Cl)Cl", "Assigned category": "active"}
{"Compound": "COP(=S)(OC)Oc1ccc([N+](=O)[O-])c(C)c1", "Assigned category": "inactive"}
{"Compound": "CC(C)(C)C(=O)C(Oc1ccc(Cl)cc1)n1cncn1 (centres undefined)", "Assigned category": "active"}
{"Compound": "COCc1cnc(C2=NC(C)(C(C)C)C(=O)N2)c(C(=O)O)c1 (centres undefined)", "Assigned category": "inactive"}
{"Compound": "N#CN=C1SCCN1Cc1ccc(Cl)nc1", "Assigned category": "inactive"}
{"Compound": "CCNP(=S)(OC)O/C(C)=C/C(=O)OC(C)C (centres undefined)", "Assigned category": "active"}
{"Compound": "CCOP(=S)(OCC)Oc1nc(Cl)n(C(C)C)n1", "Assigned category": "active"}
{"Compound": "C=CCOC(=O)C(C)(C)OC(=O)c1cc(-n2c(=O)cc(C(F)(F)F)n(C)c2=O)ccc1Cl", "Assigned category": "active"}
{"Compound": "COP(=S)(OC)SCn1nnc2ccccc2c1=O", "Assigned category": "active"}
{"Compound": "CCOc1nc(F)cc2nc(S(=O)(=O)Nc3c(Cl)cccc3Cl)nn12", "Assigned category": "inactive"}
{"Compound": "CCOc1cc(C(C)(C)C)ccc1C1COC(c2c(F)cccc2F)=N1 (centres undefined)", "Assigned category": "active"}
{"Compound": "COC(=O)N(C(=O)N1CO[C@@]2(C(=O)OC)Cc3cc(Cl)ccc3C2=N1)c1ccc(OC(F)(F)F)cc1", "Assigned category": "active"}
{"Compound": "CC1(C)CON(Cc2ccccc2Cl)C1=O", "Assigned category": "active"}
{"Compound": "Clc1cccc(C(Cl)(Cl)Cl)n1", "Assigned category": "inactive"}
{"Compound": "CCCCC(O)(Cn1cncn1)c1ccc(Cl)cc1Cl (centres undefined)", "Assigned category": "inactive"}
{"Compound": "CS(=O)(=O)c1ccc(C(=O)C2C(=O)CCCC2=O)c([N+](=O)[O-])c1", "Assigned category": "inactive"}
{"Compound": "CCCN(CC)CC1COC2(CCC(C(C)(C)C)CC2)O1 (centres undefined)", "Assigned category": "inactive"}
